This section presents molecules with their documented percent activity values.
System: fatty acid-CoA ligase QKS25406
Experiment: substrate chain length preference of fatty acid-CoA ligase QKS25406
Assay type: biochemical, Halomonas titanicae
Condition notes: substrate chain length preference distribution, percent activity vs. carbon length; enzyme QKS25406
Reported property: percent activity (%)

Smiles entry: CCCCCCCC(=O)O
Obs value: 0.0
//
Smiles entry: CCCCCCCCCCCCCCCCCCCCCC(=O)O
Obs value: 100
//
Smiles entry: CCCCCCCCCCCCCCCC(=O)O
Obs value: 30.4
//
Smiles entry: CCCCCCCCCCCCCCCCCCCC(=O)O
Obs value: 100
//
Smiles entry: CCCCCCCCCC(=O)O
Obs value: 0.0
//
Smiles entry: CCCCCCCCCCCCCC(=O)O
Obs value: 11.6

---

System: fatty acid-CoA ligase QKS23364
Experiment: substrate chain length preference of fatty acid-CoA ligase QKS23364
Assay type: biochemical, Halomonas titanicae
Condition notes: substrate chain length preference distribution, percent activity vs. carbon length; enzyme QKS23364
Reported property: percent activity (%)

Smiles entry: CCCCCCCCCCCCCC(=O)O
Reported property: percent activity
Obs value: 100

Smiles entry: CCCCCCCCCC(=O)O
Reported property: percent activity
Obs value: 70.7

Smiles entry: CCCCCCCCCCCCCCCCCCCC(=O)O
Reported property: percent activity
Obs value: 100

Smiles entry: CCCCCCCCCCCCCCCC(=O)O
Reported property: percent activity
Obs value: 100

Smiles entry: CCCCCCCC(=O)O
Reported property: percent activity
Obs value: 25.0

Smiles entry: CCCCCCCCCCCCCCCCCCCCCC(=O)O
Reported property: percent activity
Obs value: 46.5

---

Tested on: fatty acid-CoA ligase QKS24113
Experiment: substrate chain length preference of fatty acid-CoA ligase QKS24113
Assay type: biochemical, Halomonas titanicae
Condition notes: substrate chain length preference distribution, percent activity vs. carbon length; enzyme QKS24113
This section presents molecules with their documented percent activity values.

Molecule: CCCCCCCCCCCCCCCCCCCC(=O)O [C18, arachidic acid]
Measured target: fatty acid-CoA ligase QKS24113
percent activity: 100%

Molecule: CCCCCCCCCC(=O)O [C8]
Measured target: fatty acid-CoA ligase QKS24113
percent activity: 0.0%

Molecule: CCCCCCCCCCCCCCCC(=O)O [C14]
Measured target: fatty acid-CoA ligase QKS24113
percent activity: 21.1%

Molecule: CCCCCCCC(=O)O [C6, octanoic acid]
Measured target: fatty acid-CoA ligase QKS24113
percent activity: 0.0%

Molecule: CCCCCCCCCCCCCCCCCCCCCC(=O)O [C20, behenic acid]
Measured target: fatty acid-CoA ligase QKS24113
percent activity: 100%

Molecule: CCCCCCCCCCCCCC(=O)O [C12, myristic acid]
Measured target: fatty acid-CoA ligase QKS24113
percent activity: 5.2%

---

This section presents compounds with their documented percent activity values.
Tested on: fatty acid-CoA ligase QKS24074
Experiment: substrate chain length preference of fatty acid-CoA ligase QKS24074
Assay type: biochemical, Halomonas titanicae
Condition notes: substrate chain length preference distribution, percent activity vs. carbon length; enzyme QKS24074

Smiles entry: CCCCCCCCCC(=O)O
percent activity, %: 100
--
Smiles entry: CCCCCCCCCCCCCC(=O)O
percent activity, %: 21.0
--
Smiles entry: CCCCCCCCCCCCCCCC(=O)O
percent activity, %: 0.0
--
Smiles entry: CCCCCCCC(=O)O
percent activity, %: 100
--
Smiles entry: CCCCCCCCCCCCCCCCCCCC(=O)O
percent activity, %: 0.0
--
Smiles entry: CCCCCCCCCCCCCCCCCCCCCC(=O)O
percent activity, %: 0.0
